- ASSAYED SYSTEM: SARS-CoV-2 NSP3 macrodomain (Mac1) (Severe acute respiratory syndrome coronavirus 2)
- Assay type: binding
- RUN PARAMETERS: crystal soak 10 mM; DMSO background map
MEASUREMENT NAME: PanDDA run, DMSO background map: 1-BDC

A selection of reference data follows.
                                   compound   val
0  O=C(O)C(F)(F)F.OC[C@H]1CC2(CN1c1ncnc3[nH]ccc13)OCCO2  0.21
1  CC(C)(C)CC(CO)Nc1ncnc2[nH]ccc12 (stereo not drawn)  0.13

Request: Give recorded PanDDA run, DMSO background map: 1-BDC with SARS-CoV-2 NSP3 macrodomain (Mac1) (Severe acute respiratory syndrome coronavirus 2) for the following compound: `CC(C)(C)[C@@H]1CCN(c2ncnc3[nH]ccc23)[C@H](CO)C1`
Response: 0.11

Request: Likewise for OCC(Nc1ncnc2[nH]ccc12)c1ccccc1 (stereo not drawn) ?
Response: 0.18

Recorded values, source paper PMC12118597.
